Origin of measurements: paper PMC9675722

- Test system: IL-6 secretion
- Assay Protocol: IL-6 ELISA, LPS-stimulated HUVECs
- Assay type: cell-based, Human
- Condition Description: 24-hour pre-treatment, LPS 10 μg/mL 6 hours
Assay Metric: IL-6 secretion upon LPS stimulation

structure=CCOc1cc(N2CCC(O)CC2)ccc1Nc1ncc2c(n1)N(C)c1ccccc1C(=O)N2C data_value="significantly reduced"
structure=CCOc1cc(C(=O)N2CCC(N3CCN(C)CC3)CC2)ccc1Nc1ncc2c(n1)N(C1CCCC1)c1ccccc1C(=O)N2C data_value="significantly reduced"
structure=Cc1ncsc1-c1ccc([C@H](C)NC(=O)[C@@H]2C[C@@H](O)CN2C(=O)[C@@H](NC(=O)CCCCCN2CCN(c3ccc4c(C5CCN(C(=O)c6ccc(OC(F)(F)F)cc6N)CC5)ncnc4c3)CC2)C(C)(C)C)cc1 data_value="no effect"
structure=CN1CCN(c2cnc3c(C4CCN(C(=O)c5ccc(OC(F)(F)F)cc5N)CC4)ncnc3c2)CC1 data_value="no effect"

====

- Tested on: IL-8 secretion
- Assay Protocol: IL-8 ELISA, LPS-stimulated HUVECs
- Format: cell-based, Human
- Condition Description: 24-hour pre-treatment, LPS 10 μg/mL 6 hours
Assay Metric: IL-8 secretion upon LPS stimulation

structure=Cc1ncsc1-c1ccc([C@H](C)NC(=O)[C@@H]2C[C@@H](O)CN2C(=O)[C@@H](NC(=O)CCCCCN2CCN(c3ccc4c(C5CCN(C(=O)c6ccc(OC(F)(F)F)cc6N)CC5)ncnc4c3)CC2)C(C)(C)C)cc1 data_value="no effect"
structure=CCOc1cc(N2CCC(O)CC2)ccc1Nc1ncc2c(n1)N(C)c1ccccc1C(=O)N2C data_value="significantly reduced"
structure=CN1CCN(c2cnc3c(C4CCN(C(=O)c5ccc(OC(F)(F)F)cc5N)CC4)ncnc3c2)CC1 data_value="no effect"
structure=CCOc1cc(C(=O)N2CCC(N3CCN(C)CC3)CC2)ccc1Nc1ncc2c(n1)N(C1CCCC1)c1ccccc1C(=O)N2C data_value="significantly reduced"
